Taken from ChEMBL document CHEMBL5113433.

- method description: Cytotoxicity against mouse RAW264.7 cells assessed as cell viability after 24 hrs by MTT assay
- Type: toxicity, cell-based
// values below are reported IC50 at 24 h

Example entries and their recorded answers appear below.
>>> measured_result("CC(=O)OCC1(O)CCC2C1CC(C)(C)CC1CC12C (single isomer, unassigned; (+))")
"> 10 µM"
>>> measured_result("CC(=O)OC[C@@]1(O)CC[C@@H]2[C@@H]1CC(C)(C)C[C@H]1C[C@]12C")
"> 10 µM"

Turning now to a further compound:
Incoming: For the compound shown here, C=CCC(C)(C)C[C@@H]1C(=O)CC[C@H]1C(=C)C , give the reported IC50 at 24 h.
Outgoing: > 10 µM
